# target-desc: PPARγ (Mus musculus, UniProt P37238)
# Construct: expressed in transfected cells; host or cells: 293T cells
# Sequence (P37238 1-505): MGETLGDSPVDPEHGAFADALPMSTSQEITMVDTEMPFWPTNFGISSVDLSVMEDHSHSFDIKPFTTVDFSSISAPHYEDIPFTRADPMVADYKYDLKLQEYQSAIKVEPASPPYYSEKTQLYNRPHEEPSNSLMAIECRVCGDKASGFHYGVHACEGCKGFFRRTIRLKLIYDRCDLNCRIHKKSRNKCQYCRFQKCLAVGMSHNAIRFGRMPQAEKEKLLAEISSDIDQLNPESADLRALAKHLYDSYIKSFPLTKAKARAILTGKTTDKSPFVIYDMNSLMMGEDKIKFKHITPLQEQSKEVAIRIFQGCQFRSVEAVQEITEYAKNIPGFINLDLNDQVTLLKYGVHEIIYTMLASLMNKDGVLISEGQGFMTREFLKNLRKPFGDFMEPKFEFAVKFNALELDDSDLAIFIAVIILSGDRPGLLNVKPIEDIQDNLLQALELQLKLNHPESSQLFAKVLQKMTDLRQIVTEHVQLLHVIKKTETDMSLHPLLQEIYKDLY
# procedure-text: PPAR reporter assay in 293T cells, PPARγ (agonist GW7845)
# Assay type: cell-based
# test-settings: HEK-293T; 1 μM compound; 1 μM agonist GW7845; 293T cells; read-out: Reporter assay (% inhibition), γ
readout: inhibition at 1 µM

Here are 3 compounds together with their reported answers.
- smiles-notation: "CC(C)(C)c1ccc(C(=O)N(N)S(=O)(=O)c2ccc(C(C)(C)C)cc2)cc1"
  value: "0%"
- smiles-notation: "COc1ccc(S(=O)(=O)N(C(=O)c2ccc(Cl)cc2)N(C(=O)c2ccc(Cl)cc2)C(=O)c2ccc(Cl)cc2)cc1"
  value: "0%"
- smiles-notation: "CC(C)(C)c1ccc(S(=O)(=O)N(NC(=O)c2ccc(Cl)nc2)C(=O)c2ccc(Cl)nc2)cc1"
  value: "0%"

// sample `CC(=O)Oc1ccc(C(=O)NN(C(=O)c2ccc(OC(C)=O)cc2)S(=O)(=O)c2ccc(C(C)(C)C)cc2)cc1` , its inhibition at 1 µM was 19%

// sample `CC(C)(C)c1ccc(S(=O)(=O)N(NC(=O)c2ccc(Cl)cc2)C(=O)c2ccc(Cl)cc2)cc1` , its inhibition at 1 µM was 0%

// sample `CC(C)(C)c1ccc(C(=O)N(NC(=O)c2ccc(Cl)cc2)S(=O)(=O)c2ccc(C(C)(C)C)cc2)cc1` , its inhibition at 1 µM was 18%

// sample `CC(C)(C)c1ccc(S(=O)(=O)N(NC(=O)c2ccc(O)cc2)C(=O)c2ccc(O)cc2)cc1` , its inhibition at 1 µM was 0%

// sample `O=C1NN(c2cccc(F)c2)C(=O)/C1=C\c1ccc(-c2ccc(S(=O)(=O)Nc3ncco3)cc2)o1` , its inhibition at 1 µM was 0%

// sample `CC(C)(C)c1ccc(S(=O)(=O)N(C(=O)c2ccc(Cl)cc2)N(C(=O)c2ccc(Cl)cc2)C(=O)c2ccc(Cl)cc2)cc1` , its inhibition at 1 µM was 0%

====

# System: PPARα
# procedure-text: PPAR reporter assay in 293T cells, PPARα (agonist WY14643)
# Assay type: cell-based
# test-settings: 10 μM compound, 1 μM agonist WY14643
readout: Reporter assay (% inhibition), α (%)
# value in %; strip the unit string

- compound: "CC(C)(C)c1ccc(C(=O)N(N)S(=O)(=O)c2ccc(C(C)(C)C)cc2)cc1 [YL-1-69]"
  Reporter assay (% inhibition), α, %: 15
- compound: "COc1ccc(S(=O)(=O)N(C(=O)c2ccc(Cl)cc2)N(C(=O)c2ccc(Cl)cc2)C(=O)c2ccc(Cl)cc2)cc1 [YL-1-38-1]"
  Reporter assay (% inhibition), α, %: 15
- compound: "CC(C)(C)c1ccc(S(=O)(=O)N(NC(=O)c2ccc(Cl)cc2)C(=O)c2ccc(Cl)cc2)cc1 [YL-1-68-2]"
  Reporter assay (% inhibition), α, %: 23
- compound: "CC(C)(C)c1ccc(C(=O)N(NC(=O)c2ccc(Cl)cc2)S(=O)(=O)c2ccc(C(C)(C)C)cc2)cc1 [YL-1-80]"
  Reporter assay (% inhibition), α, %: 24
- compound: "O=C1NN(c2cccc(F)c2)C(=O)/C1=C\\c1ccc(-c2ccc(S(=O)(=O)Nc3ncco3)cc2)o1 [Sd-107-10]"
  Reporter assay (% inhibition), α, %: 0

// sample CC(=O)Oc1ccc(C(=O)NN(C(=O)c2ccc(OC(C)=O)cc2)S(=O)(=O)c2ccc(C(C)(C)C)cc2)cc1 [YL-1-87] , its Reporter assay (% inhibition), α was 0

// sample CC(C)(C)c1ccc(S(=O)(=O)N(NC(=O)c2ccc(O)cc2)C(=O)c2ccc(O)cc2)cc1 [YL-1-88] , its Reporter assay (% inhibition), α was 0

// sample CC(C)(C)c1ccc(S(=O)(=O)N(NC(=O)c2ccc(Cl)nc2)C(=O)c2ccc(Cl)nc2)cc1 [YL-1-83] , its Reporter assay (% inhibition), α was 0

// sample CC(C)(C)c1ccc(S(=O)(=O)N(C(=O)c2ccc(Cl)cc2)N(C(=O)c2ccc(Cl)cc2)C(=O)c2ccc(Cl)cc2)cc1 [YL-1-68-1] , its Reporter assay (% inhibition), α was 0
